Where do the numbers come from? From the nanobody polyreactivity screen of Harvey et al. (2022).

- procedure.text: yeast display, Sf9 membrane polyspecificity reagent, FACS + sequencing; frameworks hold sequencing errors
measured.property: polyreactivity (PSR sort gate)

Illustrative cases are given below, each with its answer.
Reported polyreactivity (PSR sort gate) ( QVQLVESGGGLVQAGGSLRLSCAASGFTFYLYAMGWYRQAPGKERELVAAITYSAGSTYYADSVKGRFTISRDNAKNTVYLQMNSLKPEDTAVYYCAKRGHYRAWGGGGYWGQGTQVTVSS ) = low polyreactivity

Reported polyreactivity (PSR sort gate) ( QVQLVESGGGLVQAGGSLRLSCAASGRIFSRYAMGWYRQAPGKERELVAAITYSGGSTYYADSVKGRFTISRDNAKNTVYLQMNSLKPEDTAVYYCNAATYGGRYYYWGQGTQVTVSS ) = high polyreactivity

Reported polyreactivity (PSR sort gate) ( QVQLVESGGGLVQAGGSLRLSCAASGFTFKYYTMGWYRQAPGKERELVAVISRTGSTNYADSVKGRFTISRDNAKNTVYLQMNSLKPEDTAVYYFITARGKYAFFDVDYWGQGTQVTVTS ) = high polyreactivity

Reported polyreactivity (PSR sort gate) ( QVQLVESGGGLVQAGGSLRLSCAASGRTFSFYAMGWYRQAPGKERELVAAISRGGTTNYADSVKGRFTISRDNAKNTVYLQMNSLKPEDTAVYYCAASYFRRGFYSIYEYDYWGQGTQVTVSS ) = low polyreactivity

Reported polyreactivity (PSR sort gate) ( QVQLVESGGGLVQAGGSLRLSCAASGFTFEYYAMGWYRHAPGKERELVAAITSGGTTYYADSVKGRFTISRDNAKNTDYLQMNSLKPEDTAVYYCAAANRFGPYGYWGQGTQVTVSS ) = high polyreactivity

Reported polyreactivity (PSR sort gate) ( QVQLVESGGGLVQAGGSLRLSCAASGSIFLTYDMGWYRQAPGKERELVAAITGSGDSTYYADSVKGRFTISRDNAKNTVYLQMNSLKPEDNAVYYCNADGPSTPWVDYGYWGQGTQVTVSS ) = low polyreactivity

Next:
Reported polyreactivity (PSR sort gate) ( QVQVVESGGGLVQAGGSLRLSCAASGSIFGANTMGWYRPAPGKERELVAAISSGGNTYYADSVKGRFTISRDNAKNTVYLQMNSLKPEDTAVYYCNAQTRYLYQYGYLGGTGYNYWGQGTQVTVSS ) = low polyreactivity

Reported polyreactivity (PSR sort gate) ( QVQLVESGGGLVQAGGSLRLSCAASGFIVDWYTRGWYRQAPGKERELVARISSDGSTTYADSVKGRFTISRDNAKNTVSVQMTSLKPEDTAVYYCAADVTYPGLKYIFDDWGQGTQVTVTS ) = low polyreactivity

Reported polyreactivity (PSR sort gate) ( QVQLVESGGGLVQAGGSLRLTCAASGSIFYAYAMGWYRQAPGKERELVAAISGRGGSTYYADSVTGRFTISRDNAKKTVYFQMNSLKPEDTAVYYCAAERRTFYGLGVHYWGQVTQVTVSS ) = high polyreactivity

Reported polyreactivity (PSR sort gate) ( QVQLVESGGAVVHAGGSLRLSCAASGFTFRYYDKGWYRQAHGKEMELVAAISSGGSTDYADSVKGRFTISRDNAKNTVYLQMNCLKPEDNAVYYCAADWWVVYTYDYWGPGTQVTVSS ) = low polyreactivity

Reported polyreactivity (PSR sort gate) ( QVQLVESGGGLVQAGGSLRLSCAASGGIFPAYAMGWYRQSPGKERELVASISANGGRTYYADSVKGRFTISRDNAKNSVYLQLNSLKPEDTAVYYCNASYRSGSWRFYYWGQGTQVTVSS ) = high polyreactivity

* * *

- procedure.text: yeast display, Sf9 membrane polyspecificity reagent, FACS + sequencing; frameworks hold sequencing errors
measured.property: polyreactivity (PSR sort gate)

Reported polyreactivity (PSR sort gate) ( QVQLVESGGGLVQAGGSLRISCAASGSIFGYYAMGWYRQAPGKERELVAVITWNTGNTYYADSVKGRFTISRDNAKNTVYLQMNSLKPEDNAVYYCAADQTGWGDTYDYWGQGTQVTVSS ) = low polyreactivity

Reported polyreactivity (PSR sort gate) ( QVQLVESGGGLVQAGGSLRLSCAASGIIFNGYAMGWYRQAPGKERELVAAISSSGGRTYYADSVKGRFTISRDNAKNTVYLQMNSLKPEDTAVYYCAADAAGSRVYPYDYWGQGTQVTVSS ) = high polyreactivity

Reported polyreactivity (PSR sort gate) ( QVHLVESGGGLVQAGGSLRLSCAASGNIIYWNGMGWYRKAPGKEREFVADITASGGSTYYADSVKGRFTISRDNAKNTVYLQMNSLIPEDTAVYYCAAQGVDSYYENDYWGQGTQVTVSS ) = high polyreactivity

Reported polyreactivity (PSR sort gate) ( QVQLVESGGGLVQAGGSLRLSCAASGRTFGIYAMGWYRPAPGKERELVATISWRGGSTYYADSVKGRFTISRDNAKNTVYLQMNSLKPEDTAVYYCAAGYYPYWGQGTQVTVSS ) = low polyreactivity

Reported polyreactivity (PSR sort gate) ( QVQLVESGGGLFQAGGSLRLSCAASGSTFAFYDMGWYRQATGIERELVAIIDWSGGRTYYADSVKGRFTISRDNAKHTVYLQMNSLKPQDTAVYYCAVDYEYVGGDYWGQGTQVTVSS ) = low polyreactivity

Reported polyreactivity (PSR sort gate) ( QVQLVESGGGLVQAGGSLRLSCAASGSTLHSYAMGWYRQAPGKERELVAALSFRGGSTYADSVKGRFTISRDNAKNTVYLQMNSLKPEDTAVYYCATRSTRADWYIVGYDYWGQGTQVTVSS ) = low polyreactivity

Next:
Reported polyreactivity (PSR sort gate) ( QVQLVESGGGLVQAGGSLRLSCAASGNTFSRYAMGWYRQAPGKERELVAAISYSTGSTRYADSVKGRFTISRDNAKNTVYLQMNSLKPEDTAVYYCAARAKSRGYWGQGTQVTVSS ) = high polyreactivity

Reported polyreactivity (PSR sort gate) ( QVQLVDSGGGLVQAGGSLRLSCAASGITFYVNAMGWYRQAPRKERELVASISTGGSTNYADSVKGRFTISRDNAKNTVYLQMNSLKPEDTAVYYCAARVDYHPSLRDYWGQGTQVTVSS ) = low polyreactivity

Reported polyreactivity (PSR sort gate) ( QLQLQEGGGGLVQAGGSLRLSCAASGYISYGDVMGSYRQAPGEERELVASIGLDATTNYADSVKGRFNISRDNAKITVYLQMNSLKPEDTAVYYCAAVVGSGVLCGYWGQGTQMTVSS ) = high polyreactivity

Reported polyreactivity (PSR sort gate) ( QVQLVESRGGLVQAGGSLRLRCAASGFILDTYGIVWYRQAPGKERELVAAIYQSDVSTYYADSVKGRFTISRDNAKNTVYLQMNSLKPEDTAVYYCAADRGVLRWFCQVLYDYWGQGTQVTVSS ) = low polyreactivity

Reported polyreactivity (PSR sort gate) ( QVQLGESGGGLVQAGGSLRLSCAASGRTFILNAMGWYRQAPGKERELVAAISWSGGSTYYADSVKGRFTISRDNAKNTVYLQMNSLKPEDTAVYYCAAVTYAYLFHTYDYWGQGTQVTVSS ) = low polyreactivity

* * *

- procedure.text: yeast display, Sf9 membrane polyspecificity reagent, FACS + sequencing; frameworks hold sequencing errors
measured.property: polyreactivity (PSR sort gate)

Illustrative cases are given below, each with its answer.
Reported polyreactivity (PSR sort gate) ( QVQLVESGGGLVQAGGSLRLSCAASGFIFYYNAMGWYRQAPGKERELVAAIDSGGRTNYADSVKGRFTISRDNAKNTVYLQMNSLKPEDTAVYYCAADVITYATYGTRKFQRYGYWGQGTQVTVSS ) = low polyreactivity

Reported polyreactivity (PSR sort gate) ( QVQLVESGGGLVQAGGSLRLSCAASGSIFQYYAMGWYRQAPGKERELVAVISFSDGSTYYADSVKGRFTISRDNAKNTVYLQMNSLKPEDTAVYYCARRRFSVSRRSYYWGQGTQVTVSS ) = high polyreactivity

Reported polyreactivity (PSR sort gate) ( QVQLVESGGGLVQAGGSLRLSCAASGSIVAYNAMAWYRQAPGKEWELVAAINSGSLTYYADSVTGRFTISRDNAKYTVYLPMNSLKPEDTAVYYCAAEWERWYYRYDYWGQGTQVTVSS ) = high polyreactivity

Reported polyreactivity (PSR sort gate) ( QVQLVESGGGLVQAGGSLRLSCAASGRTFGYNAMGWYRQAPGKERELVATISWGGGSTYYADSVKGRFTISRDNAKNTVYLQMNSLKPEDTAVYYCNKVHYGRRHSYSGAIYGEDYWGQGTQVTVSS ) = high polyreactivity

Reported polyreactivity (PSR sort gate) ( QVQLVESGGGLDQAGGSLRLSCAASGITFGFYTMGWYRQAPGKERELVAAITSGGSTSYADSVKGRFTISRDNAKNTVYLQMNSLKPEDTAVYYCAADYLYPFPPYQYWKQSYDYWGQGTQVTVSS ) = low polyreactivity

We next turn to a different sequence, shown below.
Reported polyreactivity (PSR sort gate) ( QVQLVESGGGIVQAGGSLRLSWAASGSIFDKYAMGWYRQAHGKERELVAAIDSGDTYYADSVKGRFTISRDNAKNPVYFQMNSLKPEDTAVYYWAADDVQYEYDYWGQGTQVSVSS ) = low polyreactivity
